The origin of these recorded values is the supplement of paper PMC11061612.

Tested on: A253 (Head and Neck Carcinoma)
protocol.summary: combination Emax (second highest fraction inhibited in the dose matrix, 72 h); higher = more inhibition; extreme values may be limits of the assay
Would you mind telling me the reported combination Emax of each entry?

Here's what some known entries look like.
1) CN(CCO)CC[C@H](CSc1ccccc1)Nc1ccc(S(=O)(=O)NC(=O)c2ccc(N3CCC([C@@H](O)c4ccccc4-c4ccc(Cl)cc4)CC3)cc2)cc1S(=O)(=O)C(F)(F)F [AZD4320] + Cn1cnc2c(F)c(Nc3ccc(Br)cc3Cl)c(C(=O)NOCCO)cc21 [Selumetinib] (first compound max 1 µM, 7x7, partner max 3 µM)    0.523
2) Cn1cnc2c(F)c(Nc3ccc(Br)cc3Cl)c(C(=O)NOCCO)cc21 [Selumetinib] + CCN(CCO)CCCOc1ccc2c(Nc3cc(CC(=O)Nc4cccc(F)c4)[nH]n3)ncnc2c1 [AZD2811] (first compound max 10 µM, 7x7, partner max 1 µM)    0.348
3) COc1cc2c(cc1OCCCCCOc1cc3c(cc1OC)C(=O)N1C=C(C)C[C@H]1C=N3)N=C[C@@H]1CC(C)=CN1C2=O [SG3199] + O=C(c1cc(Cc2n[nH]c(=O)c3ccccc23)ccc1F)N1CCN(C(=O)C2CC2)CC1 [Olaparib] (first compound max 0.001 µM, 7x7, partner max 10 µM)    0.0649
4) CC1(C)CCC(CN2CCN(c3ccc(C(=O)NS(=O)(=O)c4ccc(NCC5CCOCC5)c([N+](=O)[O-])c4)c(Oc4cnc5[nH]ccc5c4)c3)CC2)=C(c2ccc(Cl)cc2)C1 [Venetoclax] + Cc1cc2ncnn2cc1Nc1ncc2c(n1)n(C1CCOCC1)c(=O)n2C [AZD7648] (first compound max 1 µM, 7x7, partner max 10 µM)    0.212

Give one value of combination Emax per listed compound.
1. CN(C)CCCOc1ccc(-c2ccc3ncc4c(c3c2)n(C2CCOCC2)c(=O)n4C)cn1 [AZD0156] + C=CCn1c(=O)c2cnc(Nc3ccc(N4CCN(C)CC4)cc3)nc2n1-c1cccc(C(C)(C)O)n1 [AZD1775] (first compound max 1 µM, partner max 1 µM)
2. CC1(C)CCC(CN2CCN(c3ccc(C(=O)NS(=O)(=O)c4ccc(NCC5CCOCC5)c([N+](=O)[O-])c4)c(Oc4cnc5[nH]ccc5c4)c3)CC2)=C(c2ccc(Cl)cc2)C1 [Venetoclax] + C=CCn1c(=O)c2cnc(Nc3ccc(N4CCN(C)CC4)cc3)nc2n1-c1cccc(C(C)(C)O)n1 [AZD1775] (first compound max 1 µM, partner max 1 µM)

0.327
0.313

---

System: G-402 (Other Solid Carcinomas)
protocol.summary: Bliss excess, mean over the matrix (fraction); higher = more synergy
Would you mind telling me the reported Bliss excess of each entry?
Numbers only.

Here's what some known entries look like.
1) CN(CCO)CC[C@H](CSc1ccccc1)Nc1ccc(S(=O)(=O)NC(=O)c2ccc(N3CCC([C@@H](O)c4ccccc4-c4ccc(Cl)cc4)CC3)cc2)cc1S(=O)(=O)C(F)(F)F [AZD4320] + Cc1cc2ncnn2cc1Nc1ncc2c(n1)n(C1CCOCC1)c(=O)n2C [AZD7648] (first compound max 1 µM, 7x7, partner max 10 µM)    -0.0144
2) COc1nnc2ccc(N3CCC(c4ccc(OCCN5CCN(C)C(=O)[C@H]5C)cc4)CC3)nn12 [AZD5153] + C[C@@H]1COCCN1C2=NC(=NC(=C2)C3(CC3)[S@](=N)(=O)C)C4=C5C=CNC5=NC=C4 [AZD6738] (first compound max 1 µM, 7x7, partner max 10 µM)    0.0025
3) NC1(C(=O)N[C@@H](CCO)c2ccc(Cl)cc2)CCN(c2ncnc3[nH]ccc23)CC1 [Capivasertib] + COc1nnc2ccc(N3CCC(c4ccc(OCCN5CCN(C)C(=O)[C@H]5C)cc4)CC3)nn12 [AZD5153] (first compound max 10 µM, 7x7, partner max 1 µM)    -0.02

Continue with the next compound.
# value of Bliss excess, G-402 (Other Solid Carcinomas), item Cc1c2c(nn1C)CSCc1cc(n(C)n1)CSc1cc(c3ccccc3c1)OCCCc1c(C(=O)O)n(C)c3c-2c(Cl)ccc13 [AZD5991] + Cc1cc2ncnn2cc1Nc1ncc2c(n1)n(C1CCOCC1)c(=O)n2C [AZD7648] (first compound max 1 µM, 7x7, partner max 10 µM) = 0.0229

---

Would you mind telling me the reported Bliss excess of each entry?
Test system: MKN1 (Gastric Carcinoma)
protocol.summary: Bliss excess, mean over the matrix (fraction); higher = more synergy
Give bare numbers.

1. COc1nnc2ccc(N3CCC(c4ccc(OCCN5CCN(C)C(=O)[C@H]5C)cc4)CC3)nn12 [AZD5153] + C=CCn1c(=O)c2cnc(Nc3ccc(N4CCN(C)CC4)cc3)nc2n1-c1cccc(C(C)(C)O)n1 [AZD1775] (first compound max 1 µM, partner max 1 µM)    0.0363
2. Cc1nc(Nc2ncc(C(=O)Nc3c(C)cccc3Cl)s2)cc(N2CCN(CCO)CC2)n1 [Dasatinib] + CC(=O)Nc1cccc(-n2c(=O)n(C3CC3)c(=O)c3c(Nc4ccc(I)cc4F)n(C)c(=O)c(C)c32)c1 [Trametinib] (first compound max 2 µM, 7x7, partner max 1 µM)    -0.0121
3. N#Cc1cnc(Nc2cc(NC[C@H]3CNCCO3)c(C(F)(F)F)cn2)cn1 [SRA737] + Nc1ccn([C@@H]2O[C@H](CO)[C@@H](O)C2(F)F)c(=O)n1 [Gemcitabine] (first compound max 10 µM, 7x7, partner max 0.3 µM)    0.0588
4. C[C@@H]1COCCN1c1cc(C2([S@](C)(=N)=O)CC2)nc(-c2ccnc3[nH]ccc23)n1 [AZD6738] + C1CC(C1)(C(=O)[O-])C(=O)[O-].N.N.[Pt+2] [Carboplatin] (first compound max 10 µM, 7x7, partner max 10 µM)    -0.0424
5. Cc1c2c(nn1C)CSCc1cc(n(C)n1)CSc1cc(c3ccccc3c1)OCCCc1c(C(=O)O)n(C)c3c-2c(Cl)ccc13 [AZD5991] + CS(=O)(=O)CCNCc1ccc(-c2ccc3ncnc(Nc4ccc(OCc5cccc(F)c5)c(Cl)c4)c3c2)o1 [Lapatinib] (first compound max 1 µM, 7x7, partner max 10 µM)    -0.0016

Give one value of Bliss excess per listed molecule.
1. NC1(C(=O)N[C@@H](CCO)c2ccc(Cl)cc2)CCN(c2ncnc3[nH]ccc23)CC1 [Capivasertib] + CC(=O)c1c(C)c2cnc(Nc3ccc(N4CCNCC4)cn3)nc2n(C2CCCC2)c1=O [Palbociclib] (first compound max 10 µM, 7x7, partner max 10 µM)
2. COc1nnc2ccc(N3CCC(c4ccc(OCCN5CCN(C)C(=O)[C@H]5C)cc4)CC3)nn12 [AZD5153] + Cc1c2c(nn1C)CSCc1cc(n(C)n1)CSc1cc(c3ccccc3c1)OCCCc1c(C(=O)O)n(C)c3c-2c(Cl)ccc13 [AZD5991] (first compound max 1 µM, 7x7, partner max 1 µM)
3. CC(=O)c1c(C)c2cnc(Nc3ccc(N4CCNCC4)cn3)nc2n(C2CCCC2)c1=O [Palbociclib] + Cn1cnc2c(F)c(Nc3ccc(Br)cc3Cl)c(C(=O)NOCCO)cc21 [Selumetinib] (first compound max 10 µM, 7x7, partner max 10 µM)
4. Cc1c2c(nn1C)CSCc1cc(n(C)n1)CSc1cc(c3ccccc3c1)OCCCc1c(C(=O)O)n(C)c3c-2c(Cl)ccc13 [AZD5991] + Nc1ccn([C@@H]2O[C@H](CO)[C@@H](O)C2(F)F)c(=O)n1 [Gemcitabine] (first compound max 1 µM, 7x7, partner max 0.3 µM)

1. 0.0106
2. 0.0194
3. -0.0001
4. -0.0205

Give one value of Bliss excess per listed molecule.
1. C[C@@H](Oc1cc(-c2cnn(C3CCNCC3)c2)cnc1N)c1c(Cl)ccc(F)c1Cl [Crizotinib] + Cn1cnc2c(F)c(Nc3ccc(Br)cc3Cl)c(C(=O)NOCCO)cc21 [Selumetinib] (first compound max 10 µM, 7x7, partner max 10 µM)
2. NC1(C(=O)N[C@@H](CCO)c2ccc(Cl)cc2)CCN(c2ncnc3[nH]ccc23)CC1 [Capivasertib] + COc1nnc2ccc(N3CCC(c4ccc(OCCN5CCN(C)C(=O)[C@H]5C)cc4)CC3)nn12 [AZD5153] (first compound max 10 µM, 7x7, partner max 1 µM)
3. NC1(C(=O)N[C@@H](CCO)c2ccc(Cl)cc2)CCN(c2ncnc3[nH]ccc23)CC1 [Capivasertib] + CCN(CCO)CCCOc1ccc2c(Nc3cc(CC(=O)Nc4cccc(F)c4)[nH]n3)ncnc2c1 [AZD2811] (first compound max 10 µM, 7x7, partner max 1 µM)
4. N#Cc1cnc(Nc2cc(NC[C@H]3CNCCO3)c(C(F)(F)F)cn2)cn1 [SRA737] + CCc1c2c(nc3ccc(O)cc13)-c1cc3c(c(=O)n1C2)COC(=O)[C@]3(O)CC [SN-38] (first compound max 10 µM, 7x7, partner max 0.3 µM)

1. 0.0001
2. 0.0481
3. -0.0067
4. 0.0303

Give one value of Bliss excess per listed molecule.
1. O=C(c1cc(Cc2n[nH]c(=O)c3ccccc23)ccc1F)N1CCN(C(=O)C2CC2)CC1 [Olaparib] + Cc1c2c(nn1C)CSCc1cc(n(C)n1)CSc1cc(c3ccccc3c1)OCCCc1c(C(=O)O)n(C)c3c-2c(Cl)ccc13 [AZD5991] (first compound max 10 µM, 7x7, partner max 1 µM)
2. N#Cc1cnc(Nc2cc(NC[C@H]3CNCCO3)c(C(F)(F)F)cn2)cn1 [SRA737] + O=c1[nH]cc(F)c(=O)[nH]1 [5-Fluorouracil] (first compound max 10 µM, 7x7, partner max 20 µM)
3. O=C(c1cc(Cc2n[nH]c(=O)c3ccccc23)ccc1F)N1CCN(C(=O)C2CC2)CC1 [Olaparib] + CC1(C)CCC(CN2CCN(c3ccc(C(=O)NS(=O)(=O)c4ccc(NCC5CCOCC5)c([N+](=O)[O-])c4)c(Oc4cnc5[nH]ccc5c4)c3)CC2)=C(c2ccc(Cl)cc2)C1 [Venetoclax] (first compound max 10 µM, 7x7, partner max 1 µM)

-0.0332
0.0221
-0.0437
